- Test system: 885512-296-R-J2-PDC complex spheroid growth, % test/control
- assay_remarks: Anticancer human tumor 885512-296-R-J2-PDC patient-derived breast carcinoma cell line growth inhibition [AhR]
- assay_setup: curve of first compound; second compound 3.16 µM
- Description: Multicellular complex tumor spheroid response to aryl hydrocarbon receptor antagonists in combination with a variety of drugs and investigational agents in selected tumor cell lines […] Compounds. […] If the clinical Cmax for an agent had not been determined, the highest concentration tested was 10 microM (Table 1). […]
observed_property: pIC50
FYI, pIC50 means -log10 of a concentration in mol per litre.

[[record]]
compound = "NS(=O)(=O)OCC1CC(n2ccc3c(NC4CCc5ccccc54)ncnc32)CC1O (centres undefined) + CC(CO)NC(=O)c1cc(-c2ccc(Cl)cc2)nn(-c2cnn(C)c2)c1=O"
assayed_system = "885512-296-R-J2-PDC complex spheroid growth, % test/control"
observed_property = "pIC50"
obs_value = 7.05

[[record]]
compound = "CC1(C)CCC(CN2CCN(c3ccc(C(=O)NS(=O)(=O)c4ccc(NCC5CCOCC5)c([N+](=O)[O-])c4)c(Oc4cnc5[nH]ccc5c4)c3)CC2)=C(c2ccc(Cl)cc2)C1 + CC(CO)NC(=O)c1cc(-c2ccc(Cl)cc2)nn(-c2cnn(C)c2)c1=O"
assayed_system = "885512-296-R-J2-PDC complex spheroid growth, % test/control"
observed_property = "pIC50"
obs_value = 5.11

[[record]]
compound = "Nc1ncn(C2CC(O)C(CO)S2)c(=O)n1 (centres undefined) + CC(CO)NC(=O)c1cc(-c2ccc(Cl)cc2)nn(-c2cnn(C)c2)c1=O"
assayed_system = "885512-296-R-J2-PDC complex spheroid growth, % test/control"
observed_property = "pIC50"
obs_value = 6.63

[[record]]
compound = "Nc1ncn(C2CC(O)C(CO)O2)c(=O)n1 (centres undefined) + Cc1ccccc1N=Nc1ccc(NC(=O)c2ccnn2C)c(C)c1"
assayed_system = "885512-296-R-J2-PDC complex spheroid growth, % test/control"
observed_property = "pIC50"
obs_value = 6.03

[[record]]
compound = "Nc1ncn(C2CC(O)C(CO)S2)c(=O)n1 (centres undefined) + Cc1cncc(-c2nc(NCCc3c[nH]c4ccccc34)c3ncn(C(C)C)c3n2)c1"
assayed_system = "885512-296-R-J2-PDC complex spheroid growth, % test/control"
observed_property = "pIC50"
obs_value = 8.46


Lab note: next compound to report on.
Just so you know, measured pIC50 for Nc1ncn(C2CC(O)C(CO)S2)c(=O)n1 (centres undefined) + Cc1ccccc1N=Nc1ccc(NC(=O)c2ccnn2C)c(C)c1 came out at 6.58

* * *

- Test system: 885512-296-R-J2-PDC complex spheroid growth, % test/control
- assay_remarks: Anticancer human tumor 885512-296-R-J2-PDC cell line growth inhibition [AhR];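 further: spheroids exposed to compounds for seven days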
- assay_setup: second compound 1 µM; first compound 0.316 µM; stronger effect = lower value
Consider the cut-off 70%. If the recorded viability, T/C is strictly smaller, the label is yes; if not, the label is no.

In: Is 70% strictly greater than the molecule's reported viability, T/C? molecule: Nc1ccn(C2OC(CO)C(O)C2(F)F)c(=O)n1 (configuration not stated) + Cc1cncc(-c2nc(NCCc3c[nH]c4ccccc34)c3ncn(C(C)C)c3n2)c1
Out: yes

In: Is 70% strictly greater than the molecule's reported viability, T/C? molecule: O=C(c1cc(Cc2n[nH]c(=O)c3ccccc23)ccc1F)N1CCN(C(=O)C2CC2)CC1 + Cc1cncc(-c2nc(NCCc3c[nH]c4ccccc34)c3ncn(C(C)C)c3n2)c1
Out: no

In: Is 70% strictly greater than the molecule's reported viability, T/C? molecule: Nc1ccccc1NC(=O)c1ccc(CNC(=O)OCc2cccnc2)cc1 + CC(CO)NC(=O)c1cc(-c2ccc(Cl)cc2)nn(-c2cnn(C)c2)c1=O
Out: yes

In: Is 70% strictly greater than the molecule's reported viability, T/C? molecule: CC1(C)CCC(CN2CCN(c3ccc(C(=O)NS(=O)(=O)c4ccc(NCC5CCOCC5)c([N+](=O)[O-])c4)c(Oc4cnc5[nH]ccc5c4)c3)CC2)=C(c2ccc(Cl)cc2)C1 + Cc1cncc(-c2nc(NCCc3c[nH]c4ccccc34)c3ncn(C(C)C)c3n2)c1
Out: no

In: Is 70% strictly greater than the molecule's reported viability, T/C? molecule: COc1cc(C2c3cc4c(cc3C(OC3OC5COC(C)OC5C(O)C3O)C3COC(=O)C23)OCO4)cc(OC)c1O (configuration not stated) + Cc1ccccc1N=Nc1ccc(NC(=O)c2ccnn2C)c(C)c1
Out: yes

In: Is 70% strictly greater than the molecule's reported viability, T/C? molecule: Nc1ncn(C2CC(O)C(CO)O2)c(=O)n1 (configuration not stated) + CC(CO)NC(=O)c1cc(-c2ccc(Cl)cc2)nn(-c2cnn(C)c2)c1=O
Out: no

In: Is 70% strictly greater than the molecule's reported viability, T/C? molecule: COc1cc(Nc2ncc3c(n2)-c2ccc(Cl)cc2C(c2c(F)cccc2OC)=NC3)ccc1C(=O)O + Cc1ccccc1N=Nc1ccc(NC(=O)c2ccnn2C)c(C)c1
Out: yes

In: Is 70% strictly greater than the molecule's reported viability, T/C? molecule: CC1COCCN1c1cc(C2(S(C)(=N)=O)CC2)nc(-c2ccnc3[nH]ccc23)n1 (configuration not stated) + CC(CO)NC(=O)c1cc(-c2ccc(Cl)cc2)nn(-c2cnn(C)c2)c1=O
Out: no

In: Is 70% strictly greater than the molecule's reported viability, T/C? molecule: NS(=O)(=O)OCC1CC(n2ccc3c(NC4CCc5ccccc54)ncnc32)CC1O (configuration not stated) + Cc1ccccc1N=Nc1ccc(NC(=O)c2ccnn2C)c(C)c1
Out: yes

In: Is 70% strictly greater than the molecule's reported viability, T/C? molecule: CC1COCCN1c1cc(-c2ccnn2C)c2ccnc(-c3ccn[nH]3)c2n1 (configuration not stated) + CC(CO)NC(=O)c1cc(-c2ccc(Cl)cc2)nn(-c2cnn(C)c2)c1=O
Out: yes

In: Is 70% strictly greater than the molecule's reported viability, T/C? molecule: CC(C)c1c(-c2ccccc2)nc2c(C#N)c[nH]n2c1=O + Cc1ccccc1N=Nc1ccc(NC(=O)c2ccnn2C)c(C)c1
Out: no

* * *

- System: 885512-296-R-J2-PDC complex spheroid growth, % test/control
- assay_remarks: Anticancer human tumor 885512-296-R-J2-PDC cell line growth inhibition [AhR]; active = viability on the fitted dose curve at most 10% of control; inactive = the rest;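 further: spheroids exposed to compounds for seven days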
- assay_setup: second compound 10 µM; first compound 0.00949 µM
I would appreciate it if you answered using one of these outcomes: active, inactive

[[record]]
compound = "Nc1ncn(C2CC(O)C(CO)S2)c(=O)n1 (configuration not stated) + CC(CO)NC(=O)c1cc(-c2ccc(Cl)cc2)nn(-c2cnn(C)c2)c1=O"
assayed_system = "885512-296-R-J2-PDC complex spheroid growth, % test/control"
assigned_class = "inactive"


In: Hello, I am checking results. What call was entered for O=C(C=Cn1cnc(-c2cc(C(F)(F)F)cc(C(F)(F)F)c2)n1)NNc1cnccn1 + Cc1ccccc1N=Nc1ccc(NC(=O)c2ccnn2C)c(C)c1 ?
Out: inactive

In: Hello, I am checking results. What call was entered for CC(C)CC(NC(=O)C(Cc1ccccc1)NC(=O)c1cnccn1)B(O)O (configuration not stated) + CC(CO)NC(=O)c1cc(-c2ccc(Cl)cc2)nn(-c2cnn(C)c2)c1=O ?
Out: active

In: Hello, I am checking results. What call was entered for CCc1c2c(nc3ccc(O)cc13)-c1cc3c(c(=O)n1C2)COC(=O)[C@]3(O)CC + Cc1ccccc1N=Nc1ccc(NC(=O)c2ccnn2C)c(C)c1 ?
Out: active

In: Hello, I am checking results. What call was entered for CC(C)CC(NC(=O)C(Cc1ccccc1)NC(=O)c1cnccn1)B(O)O (configuration not stated) + Cc1ccccc1N=Nc1ccc(NC(=O)c2ccnn2C)c(C)c1 ?
Out: inactive

In: Hello, I am checking results. What call was entered for O=C(C=Cn1cnc(-c2cc(C(F)(F)F)cc(C(F)(F)F)c2)n1)NNc1cnccn1 + CC(CO)NC(=O)c1cc(-c2ccc(Cl)cc2)nn(-c2cnn(C)c2)c1=O ?
Out: inactive

In: Hello, I am checking results. What call was entered for Nc1ncn(C2CC(O)C(CO)S2)c(=O)n1 (configuration not stated) + Cc1ccccc1N=Nc1ccc(NC(=O)c2ccnn2C)c(C)c1 ?
Out: inactive

In: Hello, I am checking results. What call was entered for CCc1c2c(nc3ccc(O)cc13)-c1cc3c(c(=O)n1C2)COC(=O)[C@]3(O)CC + Cc1cncc(-c2nc(NCCc3c[nH]c4ccccc34)c3ncn(C(C)C)c3n2)c1 ?
Out: active

In: Hello, I am checking results. What call was entered for CCN(c1cc(-c2ccc(CN3CCOCC3)cc2)cc(C(=O)NCc2c(C)cc(C)[nH]c2=O)c1C)C1CCOCC1 + Cc1cncc(-c2nc(NCCc3c[nH]c4ccccc34)c3ncn(C(C)C)c3n2)c1 ?
Out: inactive

In: Hello, I am checking results. What call was entered for O=C(C=Cn1cnc(-c2cc(C(F)(F)F)cc(C(F)(F)F)c2)n1)NNc1cnccn1 + Cc1cncc(-c2nc(NCCc3c[nH]c4ccccc34)c3ncn(C(C)C)c3n2)c1 ?
Out: inactive

In: Hello, I am checking results. What call was entered for CCc1c2c(nc3ccc(O)cc13)-c1cc3c(c(=O)n1C2)COC(=O)[C@]3(O)CC + CC(CO)NC(=O)c1cc(-c2ccc(Cl)cc2)nn(-c2cnn(C)c2)c1=O ?
Out: active

In: Hello, I am checking results. What call was entered for Nc1ncn(C2CC(O)C(CO)S2)c(=O)n1 (configuration not stated) + Cc1cncc(-c2nc(NCCc3c[nH]c4ccccc34)c3ncn(C(C)C)c3n2)c1 ?
Out: inactive

Hello, the source for this data is PubChem BioAssay AID1919006, in case you need it.
